What Ki was measured for each of the following?
- Target desc: human plasma kallikrein (Homo sapiens (Human))
- Sequence (P03952 391-638): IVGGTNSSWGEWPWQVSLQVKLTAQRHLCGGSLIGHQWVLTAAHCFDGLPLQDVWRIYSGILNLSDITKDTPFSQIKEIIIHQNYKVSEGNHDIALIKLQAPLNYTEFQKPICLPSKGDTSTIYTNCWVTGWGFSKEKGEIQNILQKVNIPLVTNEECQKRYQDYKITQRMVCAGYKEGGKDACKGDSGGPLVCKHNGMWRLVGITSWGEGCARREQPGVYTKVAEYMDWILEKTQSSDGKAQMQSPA
- Sequence (P03952 20-390 partner): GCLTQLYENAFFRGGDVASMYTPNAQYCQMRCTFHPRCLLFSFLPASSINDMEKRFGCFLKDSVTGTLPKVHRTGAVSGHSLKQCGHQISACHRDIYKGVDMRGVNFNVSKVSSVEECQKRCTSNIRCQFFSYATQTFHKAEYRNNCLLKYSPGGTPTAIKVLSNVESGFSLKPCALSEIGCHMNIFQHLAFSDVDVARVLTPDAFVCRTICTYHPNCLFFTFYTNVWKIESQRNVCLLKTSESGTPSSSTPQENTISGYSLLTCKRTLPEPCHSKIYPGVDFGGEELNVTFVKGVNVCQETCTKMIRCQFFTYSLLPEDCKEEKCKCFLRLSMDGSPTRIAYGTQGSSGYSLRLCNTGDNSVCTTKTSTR
- Experimental details: Plasma Kallikrein Activity Assay (chromogenic substrate S2302)
- Run parameters: 2 nM kallikrein, 80 μM S2302, 30° C., pH 7.8; Cheng-Prusoff

Looking for the measured Ki of NC(CCC1CC1)(c1ccc(F)c(NC(=O)[C@H]2C[C@@H](O)CN2C(=O)Nc2ccc(Cl)cn2)c1)c1ccccn1 (stereo partly shown) [Compound 62c] , can you help?
< 50 nM

Quick one: CO[C@]1(c2ccccc2)C[C@H](C(=O)Nc2cc(C(N)(CCC3CC3)c3ccccn3)ccc2F)N(C(=O)Nc2ccc(Cl)cc2)C1 (stereo partly shown) [Compound 34d]
< 50 nM

Quick one: N#Cc1cccc([C@@H](NCC2CC2)c2ccc(F)c(NC(=O)[C@H]3C[C@@H](O)CN3C(=O)Nc3ccc(Cl)cc3)c2)c1 [Compound 60a]
> 100 nM

Quick one: CO[C@@H]1C[C@H](C(=O)Nc2cc(C(N)(CCC3CC3)c3ccncc3)ccc2F)N(C(=O)Nc2ccc(Cl)cc2)C1 (stereo partly shown) [Compound 71a]
< 50 nM

Quick one: CO[C@@H]1C[C@H](C(=O)Nc2cc(C(N)(CCC3CC3)c3cccc(C#N)c3)ccc2F)N(C(=O)Nc2ccc(Cl)cn2)C1 (stereo partly shown) [Compound 18b]
< 50 nM

Quick one: N#Cc1cccc(C(N)(CCC2CC2)c2ccc(F)c(NC(=O)[C@H]3C[C@](O)(c4ccccc4)CN3)c2)c1 (stereo partly shown) [Compound 29d]
> 100 nM

Quick one: CO[C@@H]1C[C@H](C(=O)Nc2cc(C(N)(CCC3CC3)c3cccc(C#N)c3)ccc2F)N(C(=O)N(C)c2ccc(Cl)cc2)C1 (stereo partly shown)
> 100 nM

Quick one: N#Cc1cccc(C(N)(CCC2CC2)c2ccc(F)c(NC(=O)[C@H]3C[C@H](N)CN3C(=O)Nc3ccc(Cl)cc3)c2)c1 (stereo partly shown) [Compound 33d]
> 100 nM

Quick one: O=C(Nc1ccc(Cl)cn1)NC(CCC1CC1)(c1ccc(F)c(NC(=O)[C@H]2C[C@](O)(c3ccccc3)CN2C(=O)Nc2ccc(Cl)cn2)c1)c1ccccn1 (stereo partly shown) [Compound 32b]
> 100 nM

Quick one: N#Cc1cccc(C(N)(CCC2CC2)c2ccc(F)c(NC(=O)[C@H]3C[C@@H](O)CN3C(=O)Nc3ccc([N+](=O)[O-])cc3)c2)c1 (stereo partly shown) [Compound 25b]
> 100 nM

Quick one: CO[C@@H]1C[C@H](C(=O)Nc2cc(C(N)(CCC3CC3)c3ccncc3)ccc2F)N(C(=O)Cc2ccc(Cl)cc2)C1 (stereo partly shown) [Compound 76e]
> 100 nM

Quick one: CC(C)(C)[S@@+]([O-])NC(CCC1CC1)(c1ccncc1)c1ccc(F)c(NC(=O)[C@H]2C[C@@H](O)CN2C(=O)Nc2ccc(Cl)cc2)c1 (stereo partly shown) [Compound 68a]
< 50 nM

Quick one: N#Cc1cccc(C(N)(CCC2CC2)c2ccc(F)c(NC(=O)[C@@H]3C[C@@H](O)CN3C(=O)Nc3ccc(Cl)cc3)c2)c1 (stereo partly shown)
> 100 nM

---

- Target desc: human plasma kallikrein (Homo sapiens (Human))
- Experimental details: Plasma Kallikrein Activity Assay (chromogenic substrate S2302)
- Run parameters: 2 nM kallikrein, 80 μM S2302, 30° C., pH 7.8; Cheng-Prusoff
- Experimental: Plasma Kallikrein Activity Assay. The effect of compounds of the invention on human plasma kallikrein activity was determined using the chromogenic substrates (DiaPharma Group, Inc., West Chester, Ohio, USA). […] After incubation at 30° C., the activity of kallikrein was measured as a change in absorbance at OD 405 nm using BioTek PowerWave X340 Microplate Reader (Winooski, Vt., USA). […] Ki values for the inhibitors were determined using the Cheng-Prusoff equation (Biochem. Pharmacol. 1973, 22, 3099).
pKi: −log10 of the molar value.
What pKi was measured for each of the following?

Looking for the measured pKi of CO[C@@H]1C[C@H](C(=O)Nc2cc(C(N)(CCC3CC3)c3ccncc3)ccc2F)N(C(=O)Nc2ccc(Cl)s2)C1 (stereo partly shown) [Compound 81h] , can you help?
> 7.30

Quick one: CO[C@@H]1C[C@H](C(=O)Nc2cc(C(N)(CCC3CC3)c3ccncc3)ccc2F)N(C(=O)c2ccc3c(Cl)c[nH]c3c2)C1 (stereo partly shown) [Compound 83a]
< 7.00

Quick one: O=C(Nc1cc(C(NCC2CC2)c2ccccc2)ccc1F)[C@H]1C[C@@H](O)CN1C(=O)Nc1ccc(Cl)cc1 (stereo partly shown) [Compound 3a]
7.00 to 7.30

Quick one: N#Cc1cccc(C(N)(CCC2CC2)c2ccc(F)c(NC(=O)[C@H]3C[C@@H](O)CN3C(=O)Nc3cccc4ccccc34)c2)c1 (stereo partly shown) [Compound 26b]
< 7.00

Quick one: N#Cc1cccc(C(N)(CCC2CC2)c2ccc(F)c(NC(=O)[C@H]3C[C@@H](O)CN3C(=O)Nc3ccc(F)cc3)c2)c1 (stereo partly shown) [Compound 24b]
< 7.00

Quick one: N#Cc1cccc(C(N)(CCC2CC2)c2ccc(F)c(NC(=O)[C@H]3C[C@@H](O)CN3C(=O)Nc3ccc(Cl)cc3)c2)c1 (stereo partly shown)
7.00 to 7.30

Quick one: CO[C@@H]1C[C@H](C(=O)Nc2cc(C(N)(CCC3CC3)c3ccnc(C)c3)ccc2F)N(C(=O)Nc2ccc(Cl)cn2)C1 (stereo partly shown) [Compound 46k]
> 7.30

Quick one: CO[C@@H]1C[C@H](C(=O)Nc2cc(C(CCC3CC3)(N[S@+]([O-])C(C)(C)C)c3cccc(C#N)c3)ccc2F)N(C(=O)N(C)c2ccc(Cl)cc2)C1 (stereo partly shown)
< 7.00

Quick one: N#Cc1cccc(C(N)(CCC2CC2)c2ccc(F)c(NC(=O)[C@H]3C[C@@H](O)CN3C(=O)Nc3ccccc3)c2)c1 (stereo partly shown) [Compound 21d]
< 7.00

Quick one: CCNC(CCC1CC1)(c1ccccc1)c1ccc(F)c(NC(=O)[C@H]2C[C@@H](OC)CN2C(=O)Nc2ccc(Cl)cn2)c1 (stereo partly shown) [Compound 67b]
< 7.00

Quick one: NC(CCC1CC1)(c1cccnc1)c1ccc(F)c(NC(=O)[C@H]2C[C@@H](O)CN2C(=O)Nc2ccc(Cl)cc2)c1 (stereo partly shown) [Compound 64g]
> 7.30

Quick one: N#Cc1cccc(C(N)(CCC2CC2)c2ccc(F)c(NC(=O)[C@H]3CCCN3C(=O)Nc3ccc(Cl)cc3)c2)c1 (stereo partly shown)
< 7.00

Quick one: CO[C@]1(C(F)(F)F)C[C@H](C(=O)Nc2cc(C(N)(CCC3CC3)c3ccncc3)ccc2F)N(C(=O)Nc2ccc(Cl)cn2)C1 (stereo partly shown) [Compound 57d]
> 7.30

Quick one: CNC(CCC1CC1)(c1ccnc(C)c1)c1ccc(F)c(NC(=O)[C@H]2C[C@@H](OC)CN2C(=O)Nc2ccc(Cl)cn2)c1 (stereo partly shown) [Compound 79a]
> 7.30

Quick one: N#Cc1cccc(C(N)(CCC2CC2)c2ccc(F)c(NC(=O)[C@H]3C[C@H](O)CN3C(=O)Nc3ccc(Cl)cc3)c2)c1 (stereo partly shown)
< 7.00

Quick one: NC(CCC1CC1)(c1ccncc1)c1ccc(F)c(NC(=O)[C@H]2C[C@](O)(c3ccccc3)CN2C(=O)Nc2ccc(Cl)cc2)c1 (stereo partly shown) [Compound 40a]
> 7.30

Quick one: CCCO[C@@H]1C[C@H](C(=O)Nc2cc(C(N)(CCC3CC3)c3ccncc3)ccc2F)N(C(=O)Nc2ccc(Cl)cn2)C1 (stereo partly shown) [Compound 52d]
> 7.30

Quick one: CC(C)(C)[S@@+]([O-])NC(CCC1CC1)(c1cccc(C#N)c1)c1ccc(F)c(NC(=O)[C@H]2C[C@H](O)CN2C(=O)Nc2ccc(Cl)cc2)c1 (stereo partly shown)
< 7.00

Quick one: CC(C)(C)[S@@+]([O-])NC(CCC1CC1)(c1cccc(C#N)c1)c1ccc(F)c(NC(=O)[C@@H]2C[C@@H](O)CN2C(=O)Nc2ccc(Cl)cc2)c1 (stereo partly shown)
< 7.00

Quick one: N#Cc1cccc(C(N)(CCC2CC2)c2ccc(F)c(NC(=O)[C@H]3CC(=O)CN3C(=O)Nc3ccc(Cl)cc3)c2)c1 (stereo partly shown) [Compound 20b]
< 7.00

Quick one: N#Cc1cccc(C(N)(CCC2CC2)c2ccc(F)c(NC(=O)[C@@H]3C[C@H](O)CN3C(=O)Nc3ccc(Cl)cc3)c2)c1 (stereo partly shown) [Compound 10c]
< 7.00

Quick one: CCO[C@@H]1C[C@H](C(=O)Nc2cc(C(NCC3CC3)c3cccc(C#N)c3)ccc2F)N(C(=O)Nc2ccc(Cl)cn2)C1 (stereo partly shown) [Compound 58j]
> 7.30

Quick one: N#Cc1cccc(C(N)(CCC2CC2)c2ccc(F)c(NC(=O)[C@H]3C[C@@H](O)CN3C(=O)Nc3ccc(Br)cc3)c2)c1 (stereo partly shown) [Compound 23b]
7.00 to 7.30

Quick one: N#Cc1ccc(C(N)(CCC2CC2)c2ccc(F)c(NC(=O)[C@H]3C[C@@H](O)CN3C(=O)Nc3ccc(Cl)cc3)c2)cc1 (stereo partly shown) [Compound 63g]
7.00 to 7.30

Quick one: N#Cc1cccc(C(N)(CCC2CC2)c2ccc(F)c(NC(=O)[C@H]3C[C@](O)(c4ccccc4)CN3C(=O)Nc3ccc(Cl)cn3)c2)c1 (stereo partly shown) [Compound 29e]
> 7.30
